// pIC50 lookup, one value per entry
tested on: HCT-116; assay: Antiproliferative activity against human HCT-116 cells assessed as inhibition of cell growth incubated for 48 hrs by CCK-8 assay; format: functional, cell-based; conditions: Homo sapiens, HCT-116, 48 h
The quantity pIC50 is defined as the negative base-10 logarithm of the molar concentration.

O=c1[nH]cc(F)c(=O)[nH]1 [FLUOROURACIL]	5.06

Would you kindly look at the next entry?
# query: pIC50 of entry CCOC(=O)C[C@H]1CSC[C@]1(C(=O)OCC)n1cnc2c(Cl)nc(F)nc21 (racemic)
4.96

---

tested on: HCT-116; test: Antiproliferative activity against human HCT-116 cells assessed as inhibition of cell growth incubated for 48 hrs by CCK-8 assay; type: functional, cell-based; conditions: Homo sapiens, HCT-116, 48 h
// IC50 lookup, one value per entry

Example entries begin here.
CCOC(=O)C[C@@H]1CSC[C@]1(C(=O)OCC)n1cnc2cnc(Cl)nc21 (racemic)	> 50 µM
CCOC(=O)C[C@H]1CSC[C@]1(C(=O)OCC)n1cnc2c(OCC)ncnc21 (racemic)	> 50 µM
CCOC(=O)C[C@@H]1CSC[C@]1(C(=O)OCC)n1cnc2c(N(C)C)ncnc21 (racemic)	> 50 µM
CCOC(=O)C[C@H]1CSC[C@]1(C(=O)OCC)n1cnc2c(N3CCCC3)ncnc21 (racemic)	> 50 µM
CCOC(=O)C[C@@H]1CSC[C@]1(C(=O)OCC)n1cnc2c(OC)ncnc21 (racemic)	> 50 µM

Param readout= IC50; system= HCT-116; entry= CCOC(=O)C[C@@H]1CSC[C@]1(C(=O)OCC)n1cnc2c(-c3ccccc3)ncnc21 (racemic) ; returns value.
25.1 µM

Lab note: need IC50 for CCOC(=O)C[C@H]1CSC[C@]1(C(=O)OCC)n1cnc2cncnc21 (racemic) on HCT-116, anyone have it?
> 50 µM

Write down the reported IC50 of CCCSc1ncnc2c1ncn2[C@@]1(C(=O)OCC)CSC[C@@H]1CC(=O)OCC (racemic) , test system: HCT-116.
25.9 µM

Missing value: IC50, HCT-116, entry CCOC(=O)C[C@H]1CSC[C@]1(C(=O)OCC)n1cnc2c(OC)ncnc21 (racemic) . Fill in?
> 50 µM

So what IC50 did CCOC(=O)C[C@@H]1CSC[C@]1(C(=O)OCC)n1cnc2c(Br)ncnc21 (racemic) get with HCT-116?
> 50 µM

// map CCOC(=O)C[C@H]1CSC[C@]1(C(=O)OCC)n1cnc2c(-c3ccccc3)ncnc21 (racemic) to recorded IC50 (system: HCT-116)
17.3 µM
